Molecular target: T1, recombinant human LAG-3-his protein (Novoprotein) (human, UniProt P18627 23-450)
T1 construct: Bought; also called huLAG-3; not shown: His tag
T1 sequence (looked up): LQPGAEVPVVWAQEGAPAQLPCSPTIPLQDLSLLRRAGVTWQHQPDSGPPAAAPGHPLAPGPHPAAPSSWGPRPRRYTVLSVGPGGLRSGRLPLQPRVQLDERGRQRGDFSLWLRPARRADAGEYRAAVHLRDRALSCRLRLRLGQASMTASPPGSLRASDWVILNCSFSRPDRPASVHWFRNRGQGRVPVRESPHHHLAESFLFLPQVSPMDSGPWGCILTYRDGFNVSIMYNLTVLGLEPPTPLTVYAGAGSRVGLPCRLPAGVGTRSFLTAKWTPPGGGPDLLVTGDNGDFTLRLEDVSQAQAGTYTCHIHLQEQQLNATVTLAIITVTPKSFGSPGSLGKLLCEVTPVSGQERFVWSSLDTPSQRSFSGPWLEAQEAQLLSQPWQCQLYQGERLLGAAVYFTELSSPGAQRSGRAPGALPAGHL
Experiment: BLI Octet, Ab on AHC sensor, huLAG-3-his; test group 2
Below, each entry is listed alongside its reported off-rate ratio to that of mAb747c.
A number alone suffices; assume %.

HumAb747-53 (antibody, human IgG1, V domains shown, humanized mAb747; human IgG1/kappa constant domains) VH: EVQLVQSGAEVKKPGATVKLSCTASDFNIKDDYMHWVQQAPGKGLEWIGWIVPENGNTEYASKFQGRVTITADTSTDTAYLELSSLRSEDTAVYYCTVYGDYWGQGTTVTVSS VL: DIQMTQSPSSLSASVGDRVTITCRASQEISGYLSWLQQKPGGAIKRLIYAASTLDSGVPSRFSGSRSGSDYTLTISSLQPEDFADYYCLQYASYPLTFGQGTKLELK: 319
HumAb747-50 (antibody, human IgG1, V domains shown, humanized mAb747; human IgG1/kappa constant domains) VH: EVQLVQSGAEVKKPGATVKLSCTASDFNIKDDYMHWVKQAPGKGLEWIGWIVPENGNTEYASKFQGRATITADTSTNTAYLELSSLRSEDTAVYYCTVYGDYWGQGTTVTVSS VL: DIQMTQSPSSLSASVGDRVTITCRASQEISGYLSWLQQKPGKAIKRLIYAASTLDSGVPSRFSGSRSGTDFTLTISSLQPEDFATYYCLQYASYPLTFGQGTKLEIK: 534
HumAb747-52 (antibody, human IgG1, V domains shown, humanized mAb747; human IgG1/kappa constant domains) VH: EVQLVQSGAEVKKPGATVKLSCKASDFNIKDDYMHWVQQAPGKGLEWIGWIVPENGNTEYASKFQGRVTITADTSTDTAYLELSSLRSEDTAVYYCTVYGDYWGQGTTVTVSS VL: DIQMTQSPSSLSASVGDRVTITCRASQEISGYLSWLQQKPGGAIKRLIYAASTLDSGVPSRFSGSRSGSDYTLTISSLQPEDFADYYCLQYASYPLTFGQGTKLELK: 324

Q: What value of off-rate ratio to that of mAb747c has been reported for the following binder? HumAb747-49 (antibody, human IgG1, V domains shown, humanized mAb747; human IgG1/kappa constant domains) VH: EVQLVQSGAEVKKPGATVKLSCTASDFNIKDDYMHWVQQAPGKGLEWIGWIVPENGNTEYASKFQGRVTITADTSTDTAYLELSSLRSEDTAVYYCTVYGDYWGQGTTVTVSS VL: DIQMTQSPSSLSASVGDRVTITCRASQEISGYLSWLQQKPGKAIKRLIYAASTLDSGVPSRFSGSRSGTDFTLTISSLQPEDFATYYCLQYASYPLTFGQGTKLEIK
A: 575
